The reported measurements were obtained from ChEMBL document CHEMBL3994579.

# Tested on: Staphylococcus aureus
# test-method-notes: Antibacterial activity against erythromycin-susceptible Staphylococcus aureus ATCC 25923 by broth microdilution method
# Assay type: functional
value-kind: MIC (µg/mL)

{"compound-structure-string": "CC[C@H]1OC(=O)[C@H](C)[C@@H](OC(=O)Nc2ccccc2)[C@H](C)[C@@H](O[C@@H]2O[C@H](C)C[C@H](N(C)C)[C@H]2O)[C@](C)(O)C[C@@H](C)CN(C)[C@H](C)[C@@H](OC(=O)NCc2ccc(C)cc2)[C@]1(C)O", "value-observed": 32}
{"compound-structure-string": "CC[C@H]1OC(=O)[C@H](C)[C@@H](OC(=O)N(C)c2ccccc2)[C@H](C)[C@@H](O[C@@H]2O[C@H](C)C[C@H](N(C)C)[C@H]2O)[C@](C)(O)C[C@@H](C)CN(C)[C@H](C)[C@H]2OC(=O)O[C@@]21C", "value-observed": 4}
{"compound-structure-string": "CC[C@H]1OC(=O)[C@H](C)[C@@H](OC(=O)NCc2ccccc2)[C@H](C)[C@@H](O[C@@H]2O[C@H](C)C[C@H](N(C)C)[C@H]2OC(C)=O)[C@](C)(O)C[C@@H](C)CN(C)[C@H](C)[C@H]2OC(=O)O[C@@]21C", "value-observed": 64}
{"compound-structure-string": "CCCCCCNC(=O)O[C@@H]1[C@@H](C)N(C)C[C@H](C)C[C@@](C)(O)[C@H](O[C@@H]2O[C@H](C)C[C@H](N(C)C)[C@H]2O)[C@@H](C)[C@H](OC(=O)Nc2ccc(OC)cc2)[C@@H](C)C(=O)O[C@H](CC)[C@@]1(C)O", "value-observed": 8}
